System: soybean
ASSAY_METHOD_TEXT: Test B pre/postemergence soybean
Format: in vivo, Glycine max
CONDITION_SUMMARY: Rate 1000 g/ha, Preemergence; scale 0 to 10 (0 no effect, 10 complete control)
QUANTITY: Plant response rating, Soybean
Give bare numbers.

The examples below pair each entry with its known result.
COMPOUND	REPORTED_RESULT
C=CCn1c(=O)on(C(=O)N(c2ccc(F)cc2F)C2CC2)c1=O	0
CCOC(=O)C(C)N(C(=O)n1oc(=O)n(-c2ccccc2C)c1=O)c1ccc(F)cc1 (centres unmarked)	0
COC(=O)C(CCO)n1c(=O)on(C(=O)N(c2ccc(Cl)cc2)C(C)C)c1=O (centres unmarked)	0
Cc1ccccc1-n1c(=O)on(C(=O)N(c2c(F)cccc2F)C(C)C)c1=O	2

// next item, Plant response rating, Soybean requested
## Input // Input: CCOC(=O)C(C)N(C(=O)n1oc(=O)n(C)c1=O)c1ccc(F)cc1 (centres unmarked) . Output its Plant response rating, Soybean only.
## Output 0

* * *

Tested on: rice
ASSAY_METHOD_TEXT: Test B flood test rice
Type: in vivo, Oryza sativa
CONDITION_SUMMARY: Rate 500 g/ha; Pre-emergence; flood test species; scale 0 to 10 (0 no effect, 10 complete control)
Would you kindly list Rice plant response rating for each of these compounds?
One number for each entry.

COMPOUND	MEASURED_TARGET	QUANTITY	REPORTED_RESULT
COC(OC)C(C)n1c(=O)on(C(=O)N(c2ccc(F)cc2)C(C)C)c1=O (stereo not drawn)	rice	Rice plant response rating	0
Cc1nc(C)c(Cn2c(=O)on(C(=O)N(c3ccc(F)cc3F)C(C)C)c2=O)s1	rice	Rice plant response rating	0
CC(C)N(C(=O)n1oc(=O)n(Cc2ccccn2)c1=O)c1ccc(F)cc1	rice	Rice plant response rating	0
CC1CC1n1c(=O)on(C(=O)N(c2ccc(F)cc2)C(C)C)c1=O (stereo not drawn)	rice	Rice plant response rating	5
CC(C)N(C(=O)n1oc(=O)n(CCC2OCCO2)c1=O)c1ccc(F)cc1	rice	Rice plant response rating	6

Could you report Rice plant response rating for every entry in the following list?
1. Cc1cc(C)n(Cn2c(=O)on(C(=O)N(c3ccccc3)C(C)C)c2=O)n1
2. CC(C)N(C(=O)n1oc(=O)n(CC2CCOC2)c1=O)c1ccc(F)cc1 (stereo not drawn)

## Output
1: 0; 2: 0

Parameters: items (list). Returns: Rice plant response rating for each item.
1. CC(C)N(C(=O)n1oc(=O)n(COC(=O)C(C)(C)C)c1=O)c1ccc(F)cc1
2. C=CCCCn1c(=O)on(C(=O)N(c2ccc(F)cc2)C(C)C)c1=O

## Output
0
0

* * *

Test system: pigweed
ASSAY_METHOD_TEXT: Test B pre/postemergence pigweed
Assay type: in vivo, Amaranthus retroflexus
CONDITION_SUMMARY: Preemergence, Rate 125 g/ha
QUANTITY: Redroot pigweed plant response rating (0 to 10 scale)
Give bare numbers.

MOLECULE	MEASURED_TARGET	REPORTED_RESULT
CC(C)N(C(=O)n1oc(=O)n(C2(C)CC2)c1=O)c1ccc(Cl)cc1 [Compound 361]	pigweed	7
CC(C)N(C(=O)n1oc(=O)n(N2CCOCC2)c1=O)c1ccc(F)cc1 [Compound 385]	pigweed	7
CC1CC1n1c(=O)on(C(=O)N(c2ccc(F)cc2F)C(C)C)c1=O (stereo not drawn) [Compound 372]	pigweed	10
CCN(C(=O)n1oc(=O)n(C(C)C)c1=O)C1CCCCC1 [Compound 309]	pigweed	0
COCC(C)n1c(=O)on(C(=O)N(c2ccc(F)cc2F)C(C)C)c1=O (stereo not drawn) [Compound 357]	pigweed	10

The record that follows has no Redroot pigweed plant response rating (0 to 10 scale) shown yet.
## Input Consider the molecule CC(C)N(C(=O)n1oc(=O)n(C2CC3CCC2C3)c1=O)c1ccccc1 (stereo not drawn) [Compound 328] and give its recorded Redroot pigweed plant response rating (0 to 10 scale).
## Output 0

* * *

Record form. Attribute: Plant response rating, Giant foxtail. Fill in for each entry.
Test system: giant foxtail
ASSAY_METHOD_TEXT: Test B pre/postemergence giant foxtail
Assay type: in vivo, Setaria faberii
CONDITION_SUMMARY: Rate 500 g/ha, Postemergence; scale 0 to 10, 0 no effect, 10 complete control
Numbers only.

COMPOUND	Plant response rating, Giant foxtail
CC(C)N(C(=O)n1oc(=O)n(C2(C)CC2)c1=O)c1ccc(F)cc1F	9
CC1CC1n1c(=O)on(C(=O)N(c2ccc(F)cc2)C(C)C)c1=O (stereo not shown)	9
CC(C)N(C(=O)n1oc(=O)n(N2C(C)CCCC2C)c1=O)c1ccc(F)cc1F (stereo not shown)	6

Now look at this entry.
## Input Note down Plant response rating, Giant foxtail recorded for COCC(C)n1c(=O)on(C(=O)N(c2ccc(F)cc2F)C(C)C)c1=O (stereo not shown)
## Output 9

* * *

Answer each item with its documented Plant response rating, Bedstraw.
Tested on: bedstraw
ASSAY_METHOD_TEXT: Test B pre/postemergence bedstraw
Assay type: in vivo, Galium aparine
CONDITION_SUMMARY: Rate 250 g/ha, Postemergence; scale of 0 to 10 where 0 is no effect and 10 is complete control
Procedure: […] At the same time, these crop and weed species were also treated with postemergence applications of test chemicals formulated in the same manner. […] Treated plants and controls were maintained in a greenhouse for twelve to sixteen days, after which all species were compared to controls and visually evaluated. […]
Numbers only.

Check out these entries, answers already filled in.
COMPOUND	QUANTITY	REPORTED_RESULT
CC(C)N(C(=O)n1oc(=O)n(C2CC3CCC2C3)c1=O)c1ccccc1 (stereo not shown)	Plant response rating, Bedstraw	4
CCCCCn1c(=O)on(C(=O)N(c2ccccc2)C(C)C)c1=O	Plant response rating, Bedstraw	0
CC(C)N(C(=O)n1oc(=O)n(CC2CCCO2)c1=O)c1ccc(F)cc1 (stereo not shown)	Plant response rating, Bedstraw	0

## Input Answer with reported Plant response rating, Bedstraw of "CC(C)N(C(=O)n1oc(=O)n(Cc2ccccc2-c2ccccc2)c1=O)c1ccc(F)cc1"
## Output 7

* * *

For each entry below, report its Sugarbeets plant response rating value.
Tested on: sugar beet
ASSAY_METHOD_TEXT: Test B pre/postemergence sugar beet
Assay type: in vivo, Beta vulgaris
CONDITION_SUMMARY: Preemergence, Rate 125 g/ha; scale of 0 to 10 where 0 is no effect and 10 is complete control
One number for each entry.

As a guide, the following entries are already answered.
COMPOUND	Sugarbeets plant response rating
CCCCCCn1c(=O)on(C(=O)N(c2ccc(F)cc2F)C(C)C)c1=O	0
CC(C)N(C(=O)n1oc(=O)n(CC(=O)C2CCC2)c1=O)c1ccc(F)cc1F	0

Below is a list of compounds. For each, state its recorded Sugarbeets plant response rating.
1. CC(C)N(C(=O)n1oc(=O)n(C(C)CBr)c1=O)c1ccc(F)cc1F (centres unmarked)
2. C#CC(C)n1c(=O)on(C(=O)N(c2ccccc2)C(C)C)c1=O (centres unmarked)
3. CC(C)N(C(=O)n1oc(=O)n(CCC(=O)N(C)C)c1=O)c1ccc(F)cc1

## Output
0
3
6

* * *

Tested on: corn
ASSAY_METHOD_TEXT: Test B pre/postemergence corn
Assay type: in vivo, Zea mays
CONDITION_SUMMARY: Preemergence, Rate 125 g/ha; scale of 0 to 10 where 0 is no effect and 10 is complete control
Task for the reader: assign each of the following compounds its reported Corn plant response rating.
Numbers only.

COMPOUND	Corn plant response rating
CC(C)N(C(=O)n1oc(=O)n(Cc2nnc(Cl)s2)c1=O)c1ccccc1	0
C=C(Cl)Cn1c(=O)on(C(=O)N(c2ccccc2)C(C)C)c1=O	0
C#CC(C)n1c(=O)on(C(=O)N(c2ccccc2)C(C)C)c1=O (stereo not shown)	2

API: the following record is the query input.
## Input Please indicate Corn plant response rating recorded for "COP(=O)(CCn1c(=O)on(C(=O)N(c2ccc(F)cc2)C(C)C)c1=O)OC"
## Output 0

* * *

System: wild oat
ASSAY_METHOD_TEXT: Test B pre/postemergence wild oat
Assay type: in vivo, Avena fatua
CONDITION_SUMMARY: Preemergence, Rate 250 g/ha; scale of 0 to 10 where 0 is no effect and 10 is complete control
QUANTITY: Plant response rating, Wild oats
Answers are plain numbers.

Example cases with answers are listed next.
COc1cccc(C)c1-n1c(=O)on(C(=O)N(c2ccc(F)cc2)C(C)C)c1=O 0
CCN(Cc1ccccc1)C(=O)n1oc(=O)n(-c2ccccc2C)c1=O 0
CCN(C(=O)n1oc(=O)n(-c2ccc(F)cc2F)c1=O)C1CCCCC1 0
COc1ccc(-n2c(=O)on(C(=O)N(c3ccc(F)cc3)C(C)C)c2=O)cc1 6

Now turn to the next molecule.
## Input Answer with reported Plant response rating, Wild oats of "CC(C)N(C(=O)n1oc(=O)n(-c2ccccc2OC(F)(F)F)c1=O)c1ccc(F)cc1"
## Output 0
